- System: Vero
- measurement-description: Relative antiplasmodial activity to cytotoxicity in Plasmodium falciparum TM4/8.2 infected Vero cells
- Format: functional
Safety ratio by entry:
// response body must contain only the number

# example entries with known answers
[[record]]
compound = "COc1ccc(CCCc2nc(N)nc(N)c2-c2cccc(Cl)c2)cc1"
parameter = "Safety ratio"
number = 7.3

[[record]]
compound = "Nc1nc(N)c(-c2cccc(Cl)c2)c(CCCOC(=O)OCc2ccccc2)n1"
parameter = "Safety ratio"
number = 2.7

[[record]]
compound = "NC1=NC(c2cccc(Oc3cccc(C(F)(F)F)c3)c2)N(c2cccc(Cl)c2)C(N)=N1 (stereo not given)"
parameter = "Safety ratio"
number = 9.4

[[record]]
compound = "CC(=O)OCCCc1nc(N)nc(N)c1-c1cccc(Cl)c1"
parameter = "Safety ratio"
number = 31.3

[[record]]
compound = "Nc1nc(N)c(-c2cccc(Cl)c2)c(CCOCCCOc2ccccc2)n1"
parameter = "Safety ratio"
number = 42.9

[[record]]
compound = "Nc1nc(N)c(-c2cccc(Cl)c2)c(CCCc2ccccc2)n1"
parameter = "Safety ratio"
number = 3.1


Task: Look at this compound and give its reported Safety ratio. Nc1nc(N)c(-c2cccc(Cl)c2)c(CCCO)n1
Output: 20.3

Task: Look at this compound and give its reported Safety ratio. NC1=NC(c2cccc(Oc3ccc(Cl)cc3)c2)N(c2cccc(Cl)c2)C(N)=N1 (stereo not given)
Output: 7.9

====

- System: KB
- measurement-description: Relative antiplasmodial activity to cytotoxicity in Plasmodium falciparum TM4/8.2 infected KB cells
- Assay type: functional
Safety ratio strictly less than 10 = 1. Otherwise -1.

Please review the entries below; each comes with its answer.
[[record]]
molecule = "Nc1nc(N)c(-c2cccc(Cl)c2)c(CCCO)n1"
cat = 1

[[record]]
molecule = "NC1=NC(c2cccc(Oc3ccc(Cl)cc3)c2)N(c2cccc(Cl)c2)C(N)=N1 (centres undefined)"
cat = 1

[[record]]
molecule = "CC(=O)OCCCc1nc(N)nc(N)c1-c1cccc(Cl)c1"
cat = -1

[[record]]
molecule = "Nc1nc(N)c(-c2ccccc2)c(CCCc2ccccc2)n1"
cat = -1

[[record]]
molecule = "CCCCCCCC1N=C(N)N=C(N)N1c1cccc(Cl)c1 (centres undefined)"
cat = -1


Task: Threshold test, Safety ratio < 10: CCCCCCc1nc(N)nc(N)c1-c1ccccc1
Output: -1

Task: Threshold test, Safety ratio < 10: NC1=NC(c2cccc(Oc3cccc(C(F)(F)F)c3)c2)N(c2cccc(Cl)c2)C(N)=N1 (centres undefined)
Output: 1

Task: Threshold test, Safety ratio < 10: NC1=NC(c2cccc(Oc3cc(Cl)cc(Cl)c3)c2)N(c2cccc(Cl)c2)C(N)=N1 (centres undefined)
Output: 1

Task: Threshold test, Safety ratio < 10: NC1=NC(c2ccccc2)N(c2cccc(Cl)c2)C(N)=N1 (centres undefined)
Output: -1

Task: Threshold test, Safety ratio < 10: Nc1nc(N)c(-c2cccc(Cl)c2)c(CCOCCCOc2ccccc2)n1
Output: -1

Task: Threshold test, Safety ratio < 10: CCCOc1ccc(C2N=C(N)N=C(N)N2c2cccc(Cl)c2)cc1 (centres undefined)
Output: -1

Task: Threshold test, Safety ratio < 10: NC1=NC(c2cccc(OCCCOc3cc(Cl)c(Cl)cc3Cl)c2)N(c2cccc(Cl)c2)C(N)=N1 (centres undefined)
Output: 1

Task: Threshold test, Safety ratio < 10: COc1ccc(CCCc2nc(N)nc(N)c2-c2cccc(Cl)c2)cc1
Output: -1

Task: Threshold test, Safety ratio < 10: NC1=NC(c2cccc(OCc3ccccc3)c2)N(c2cccc(Cl)c2)C(N)=N1 (centres undefined)
Output: 1

Task: Threshold test, Safety ratio < 10: Nc1nc(N)c(-c2cccc(Cl)c2)c(CCCOC(=O)OCc2ccccc2)n1
Output: 1

Task: Threshold test, Safety ratio < 10: NC1=NC(c2ccc(Oc3ccccc3)cc2)N(c2cccc(Cl)c2)C(N)=N1 (centres undefined)
Output: 1

Task: Threshold test, Safety ratio < 10: CC1(C)N=C(N)N=C(N)N1c1ccc(Cl)cc1
Output: -1

Task: Threshold test, Safety ratio < 10: CCCC1(C)N=C(N)N=C(N)N1c1cccc(Cl)c1 (centres undefined)
Output: -1

Task: Threshold test, Safety ratio < 10: Nc1nc(N)c(-c2cccc(Cl)c2)c(CCCOC(=O)c2ccccc2)n1
Output: 1

Task: Threshold test, Safety ratio < 10: NC1=NC(c2cccc(Oc3ccc(Cl)cc3)c2)N(c2ccc(Cl)cc2)C(N)=N1 (centres undefined)
Output: 1

Task: Threshold test, Safety ratio < 10: NC1=NC(c2ccc(Oc3ccccc3)cc2)N(c2ccc(Cl)cc2)C(N)=N1 (centres undefined)
Output: -1

Task: Threshold test, Safety ratio < 10: Nc1nc(N)c(-c2cccc(Cl)c2)c(CCCc2ccccc2)n1
Output: 1

Task: Threshold test, Safety ratio < 10: CCCCCCC1(C)N=C(N)N=C(N)N1c1cccc(Cl)c1 (centres undefined)
Output: -1

Task: Threshold test, Safety ratio < 10: NC1=NC(c2cccc(Oc3ccccc3)c2)N(c2cccc(Cl)c2)C(N)=N1 (centres undefined)
Output: 1

====

- tested-system: Bifunctional dihydrofolate reductase-thymidylate synthase (Plasmodium falciparum K1)
- measurement-description: Ratio of binding affinity for mutant (N51I+C59R+S108N) to that of wild type dihydrofolate reductase
parameter: Ratio
// response body must contain only the number

# example entries with known answers
[[record]]
compound = "Nc1nc(N)c(-c2ccccc2)c(CCCO)n1"
number = 0.7

[[record]]
compound = "CCCC1(C)N=C(N)N=C(N)N1c1cccc(Cl)c1 (stereo unspecified)"
number = 2.1

[[record]]
compound = "Nc1nc(N)c(-c2cccc(Cl)c2)c(CCOCCCOc2ccccc2)n1"
number = 1.7

[[record]]
compound = "CC1(C)N=C(N)N=C(N)N1c1ccc(Cl)cc1"
number = 20.9

[[record]]
compound = "NC1=NC(c2cccc(Oc3cc(Cl)cc(Cl)c3)c2)N(c2cccc(Cl)c2)C(N)=N1 (stereo unspecified)"
number = 0.6


With those in mind, consider the next compound.
Task: Look at this compound and give its reported Ratio. COC(=O)CCCc1nc(N)nc(N)c1-c1ccccc1
Output: 5.5

====

- Test system: Bifunctional dihydrofolate reductase-thymidylate synthase (Plasmodium falciparum K1), P13922 [UNDEFINED MUTATION]
- Sequence (P13922 whole entry, looked up, stated change not applied): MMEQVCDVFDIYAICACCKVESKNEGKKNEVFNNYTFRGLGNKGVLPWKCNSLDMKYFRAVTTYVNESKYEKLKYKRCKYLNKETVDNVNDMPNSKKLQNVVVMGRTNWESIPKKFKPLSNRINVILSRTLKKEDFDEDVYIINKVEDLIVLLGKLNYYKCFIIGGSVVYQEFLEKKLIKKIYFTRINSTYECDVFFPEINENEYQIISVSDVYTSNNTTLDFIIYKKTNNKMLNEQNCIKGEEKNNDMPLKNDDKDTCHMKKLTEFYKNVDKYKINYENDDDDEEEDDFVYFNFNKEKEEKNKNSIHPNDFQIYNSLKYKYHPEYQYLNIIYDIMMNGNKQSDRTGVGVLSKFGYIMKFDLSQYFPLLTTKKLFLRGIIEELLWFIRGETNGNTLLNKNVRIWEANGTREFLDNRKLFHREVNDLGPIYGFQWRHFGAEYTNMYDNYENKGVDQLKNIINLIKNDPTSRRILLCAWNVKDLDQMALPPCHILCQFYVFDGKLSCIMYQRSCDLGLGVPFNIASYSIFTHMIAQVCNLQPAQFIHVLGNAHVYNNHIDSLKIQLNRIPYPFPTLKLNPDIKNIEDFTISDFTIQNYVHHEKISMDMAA
- measurement-description: Ratio of binding affinity for mutant (A16V+S108T) to that of wild type dihydrofolate reductase
Ratio strictly less than 9 = rule met. Otherwise rule not met.

Please review the entries below; each comes with its answer.
[[record]]
compound = "NC1=NC(c2cccc(Oc3ccc(Cl)cc3)c2)N(c2ccc(Cl)cc2)C(N)=N1 (stereo not given)"
cat = "rule met"

[[record]]
compound = "CCCCCCC1(C)N=C(N)N=C(N)N1c1cccc(Cl)c1 (stereo not given)"
cat = "rule not met"

[[record]]
compound = "CC(C)C1(C)N=C(N)N=C(N)N1c1ccc(Cl)cc1 (stereo not given)"
cat = "rule not met"

[[record]]
compound = "NC1=NC(c2cccc(Oc3ccc(Cl)cc3)c2)N(c2cccc(Cl)c2)C(N)=N1 (stereo not given)"
cat = "rule met"

[[record]]
compound = "NC1=NC(c2cccc(Oc3ccccc3)c2)N(c2ccc(Cl)cc2)C(N)=N1 (stereo not given)"
cat = "rule met"

[[record]]
compound = "NC1=NC(c2ccc(Oc3ccccc3)cc2)N(c2cccc(Cl)c2)C(N)=N1 (stereo not given)"
cat = "rule met"

[[record]]
compound = "NC1=NC(c2ccc(Oc3ccccc3)cc2)N(c2ccc(Cl)cc2)C(N)=N1 (stereo not given)"
cat = "rule not met"

[[record]]
compound = "NC1=NC(c2ccccc2)N(c2cccc(Cl)c2)C(N)=N1 (stereo not given)"
cat = "rule met"


Here is the next item to consider.
Task: Threshold test, Ratio < 9: NC1=NC(c2cccc(OCCCOc3cc(Cl)c(Cl)cc3Cl)c2)N(c2cccc(Cl)c2)C(N)=N1 (stereo not given)
Output: rule met

====

- tested-system: Bifunctional dihydrofolate reductase-thymidylate synthase (Plasmodium falciparum K1, UniProt P13922)
- measurement-description: Binding affinity towards wild-type dihydrofolate reductase of Plasmodium falciparum.
pKi: −log10 of the molar value.
Label y when pKi >= 9; otherwise n.

Please review the entries below; each comes with its answer.
[[record]]
compound = "CCCCCCc1nc(N)nc(N)c1-c1ccccc1"
cat = "y"

[[record]]
compound = "CCc1nc(N)nc(N)c1-c1ccc(C)cc1"
cat = "y"

[[record]]
compound = "COC(=O)CCCc1nc(N)nc(N)c1-c1ccc(Cl)cc1"
cat = "y"

[[record]]
compound = "Nc1nc(N)c(-c2cccc(Cl)c2)c(CCOCCCOc2ccccc2)n1"
cat = "y"

[[record]]
compound = "NC1=NC(c2ccccc2)N(c2cccc(Cl)c2)C(N)=N1 (stereo unspecified)"
cat = "n"


Task: Is pKi at least 9? Consider COc1ccc(CCCc2nc(N)nc(N)c2-c2cccc(Cl)c2)cc1
Output: n

Task: Is pKi at least 9? Consider Cc1nc(N)nc(N)c1-c1cccc(Cl)c1
Output: n

Task: Is pKi at least 9? Consider COC(=O)CCCc1nc(N)nc(N)c1-c1cccc(Cl)c1
Output: y

Task: Is pKi at least 9? Consider CC1N=C(N)N=C(N)N1c1ccc(Cl)cc1 (stereo unspecified)
Output: n

Task: Is pKi at least 9? Consider Nc1nc(N)c(-c2ccccc2)c(CCCc2ccccc2)n1
Output: y

Cited source for all entries: ChEMBL document CHEMBL1138835
